Just for reference, paper PMC11440508 is where these values come from.

target: T1, hNTS1R displayed on budded baculovirus particles (NTS1R-BBV) (human, UniProt P30989 1-418); assay: fluorescence polarisation; fluorescence anisotropy, association and dissociation (started with 1 μM SR142948) at hNTS1R-displaying BBVs, 27 °C, DPBS2; kon and Kd(kin) from a fit with koff constrained; details: one partner purified
T1 construct: human neurotensin receptor type 1 (hNTS1R) from pcDNA3.1-hNTS1-NlucC, subcloned into pIMACE-CMVintP10; also called hNTS1R-displaying BBVs; hNTS1R-Nluc
T1 sequence (P30989 whole entry): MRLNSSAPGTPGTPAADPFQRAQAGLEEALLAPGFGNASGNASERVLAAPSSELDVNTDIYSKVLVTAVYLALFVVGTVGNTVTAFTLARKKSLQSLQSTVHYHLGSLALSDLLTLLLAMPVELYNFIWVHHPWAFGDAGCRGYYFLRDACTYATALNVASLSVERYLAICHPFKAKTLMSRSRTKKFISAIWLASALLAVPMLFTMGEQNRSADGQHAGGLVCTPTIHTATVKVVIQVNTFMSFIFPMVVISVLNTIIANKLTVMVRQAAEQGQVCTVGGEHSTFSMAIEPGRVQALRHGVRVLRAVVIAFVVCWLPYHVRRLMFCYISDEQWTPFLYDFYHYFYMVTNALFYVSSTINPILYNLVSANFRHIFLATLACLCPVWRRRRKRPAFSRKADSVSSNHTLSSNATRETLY
pKd: −log10 of the molar value.

binder	pKd
XPRRPYIL (N-terminus: 5-TAMRA attached through a 3-(1H-1,2,3-triazol-4-yl)propanoyl group; position 6 (X) = 2-(piperidin-4-yl)-Gly (pipGly); Arg8 = N^ω-[(4-(N-propanoyl)aminobutyl)aminocarbonyl]Arg) [5-TAMRA-labeled, propionylated NT(6–13) derivative 13 (UR-FE051)]	9.00
